- Experimental protocol: Circular dichroism: degree of helicity (free, SUVs, micelles, TFE)
- Test parameters: percent helicity of peptide-SUV complexes
Where no end group is shown, it is not given here. [ ]: non-standard residue; d: D form. Aib = CC(C)(N)C(=O)O

Substance: 217 (PVLDLFRELLELLKQKLK) [compound 217]
He (%) SUVs: 76%
--
Substance: 105 (PAADAFREAANEAAEAAKQKAK) [compound 105]
He (%) SUVs: 32%
--
Substance: PVLDLFRELLNELWEALKQKLK [peptide 28]
He (%) SUVs: 90%
--
Substance: 38 (PVLDLFRELLNE[Aib]LEAWKQKLK) [compound 38]
He (%) SUVs: 21%
--
Substance: 40 (PVLDLFNELLRELLEALQKKLK) [compound 40]
He (%) SUVs: 79%
--
Substance: 199 (Ac-PVLDLFRELWEELKQKLK-NH2) [compound 199]
He (%) SUVs: 80%
--
Substance: EWLKAFYEKVLEKLKELF* [peptide 238, reference compound]
He (%) SUVs: 60%
--
Substance: 67 (VLDLFRELLNELLEALKQKLK) [compound 67]
He (%) SUVs: 84%
--
Substance: 223 (PVLDAFRELLEALAQLKK) [compound 223]
He (%) SUVs: 23%
--
Substance: PVLDLFRELLNELLEAZKQKLK [peptide 10]
He (%) SUVs: 70%
--
Substance: 154 (PVLELFENLLERGLDALQKKLK) [compound 154]
He (%) SUVs: 25%
--
Substance: 193 (Ac-PVLDLFRELLEELKQKLK-NH2) [compound 193]
He (%) SUVs: 87%
--
Substance: PVLDLFRELLNEXLEALKQKLK (PVLDLFRELLNE[Aib]LEALKQKLK) [peptide 6]
He (%) SUVs: 70%
--
Substance: PVLDLFRELLNELLEALOQOLO [peptide 14]
He (%) SUVs: 80%
--
Substance: 164 (PVLELFENLLERLLDAWQKKLK) [compound 164]
He (%) SUVs: 51%
--
Substance: PVLDEFREKLNERLEALKQKLK [peptide 109, reference compound]
He (%) SUVs: 23%
--
Substance: 209 (PVLDLFRELLNELLQKLK) [compound 209]
He (%) SUVs: 67%
--
Substance: 42 (PVLDEFREKLNE[Aib]WEALKQKLK) [compound 42]
He (%) SUVs: 27%
--
Substance: 51 (PVLDLFWELLNE[Aib]LEALKQKLK) [compound 51]
He (%) SUVs: 81%
--
Substance: PVLDLFKELLNELLEALKQKLK [peptide 7]
He (%) SUVs: 85%
--
Substance: PVLDLFRELLNELLEWLKQKLK [peptide 3]
He (%) SUVs: 80%
--
Substance: DWLKAFYDKVFEKFKEFF [peptide 245, reference compound]
He (%) SUVs: 70%
--
Substance: 99 (KLKQKLAELLENLLERFLDLVP) [compound 99]
He (%) SUVs: 80%

====

- Experimental protocol: Circular dichroism: degree of helicity (free, SUVs, micelles, TFE)
- Test parameters: percent helicity of peptide-TFE solution
- Protocol: Far UV circular dichroism spectra were recorded between 190 and 260 nm (in 0.5 nm or 0.2 nm increments) with a AVIV62DS spectrometer (AVIV Associates, Lakewood, N.J., USA) equipped with a thermoelectric cell holder and sample changer. […] All spectra were recorded at 37° C. The stability of peptide 4 (SEQ ID NO:4) as a function of temperature (both free in buffer and in micelles) was determined by recording spectra at a series of different temperatures. […]
Where no end group is shown, it is not given here. [ ]: non-standard residue; d: D form. Nal = non-natural residue; Aib = CC(C)(N)C(=O)O
He (%) TFE reference

Substance: 240 (Ac-DWLKAFYDKVAEKLKEAF-NH2) [compound 240]
He (%) TFE: 57
--
Substance: 50 (PVLDLFRELLWE[Aib]LEALKQKLK) [compound 50]
He (%) TFE: 76
--
Substance: 210 (PVLDLFRELLEELKQKLK) [compound 210]
He (%) TFE: 53
--
Substance: PVLDLFRELLNELZEALKQKLK [peptide 27]
He (%) TFE: 81
--
Substance: 39 (PVLDLFRELLEELLKALKKKLK) [compound 39]
He (%) TFE: 72
--
Substance: 60 (PVLDLFRELLNELLEALKQ) [compound 60]
He (%) TFE: 84
--
Substance: 37 (PVLDLFREWLNELLEALKQKLK) [compound 37]
He (%) TFE: 73
--
Substance: EWLKAFYEKVLEKLKELF* [peptide 238, reference compound]
He (%) TFE: 58
--
Substance: 91 (PVLDEFRELLNE[Aib]LEALKQKLK) [compound 91]
He (%) TFE: 100
--
Substance: 193 (Ac-PVLDLFRELLEELKQKLK-NH2) [compound 193]
He (%) TFE: 87
--
Substance: 31 (PVLDLFLELLNE[Aib]LEALKQKLK) [compound 31]
He (%) TFE: 90
--
Substance: 160 (PVLELFENLLERLLDWLQKKLK) [compound 160]
He (%) TFE: 61
--
Substance: 149 (PVLELFENLWERLLDALQKKLK) [compound 149]
He (%) TFE: 47
--
Substance: 41 (PVLDLWRELLNE[Aib]LEALKQKLK) [compound 41]
He (%) TFE: 69
--
Substance: 199 (Ac-PVLDLFRELWEELKQKLK-NH2) [compound 199]
He (%) TFE: 79
--
Substance: PVLDLFRELLNELLEZLKQKLK (PVLDLFRELLNELLE[Nal]LKQKLK; not fully specified) [peptide 1]
He (%) TFE: 69
--
Substance: 108 (PVLDLFRWLLNE[Aib]LEALKQKLK) [compound 108]
He (%) TFE: 54
--
Substance: PVLDLFKELLNELLEALKQKLK [peptide 7]
He (%) TFE: 73
--
Substance: 194 (Ac-PVLELFRELLEELKQKLK-NH2) [compound 194]
He (%) TFE: 93
--
Substance: 38 (PVLDLFRELLNE[Aib]LEAWKQKLK) [compound 38]
He (%) TFE: 49
--
Substance: 66 (PVLDLFRNLLEELLEALQKKLK) [compound 66]
He (%) TFE: 70
--
Substance: DWLKAFYDKVAEKLKEAF [peptide 244, reference compound]
He (%) TFE: 48
--
Substance: PVLDLFRELLNELLEALKQKLK [peptide 4]
He (%) TFE: 94
--
Substance: 51 (PVLDLFWELLNE[Aib]LEALKQKLK) [compound 51]
He (%) TFE: 73
--
Substance: PVLDLFRELLNEXLEALKQKLK (PVLDLFRELLNE[Aib]LEALKQKLK) [peptide 6]
He (%) TFE: 99
--
Substance: 163 (PVLELFENLLERLWDALQKKLK) [compound 163]
He (%) TFE: 55
--
Substance: 55 (PLFRELLNELLEALKQKLK) [compound 55]
He (%) TFE: 75
--
Substance: 215 (Ac-PVLDLFRELLEEWKQKLK-NH2) [compound 215]
He (%) TFE: 68
--
Substance: PVLDEFREKLNEALEALKQKLK [peptide 94, reference compound]
He (%) TFE: 63
--
Substance: 45 (PVLDEFREKLNE[Aib]LEALKQKLK) [compound 45]
He (%) TFE: 86
--
Substance: 146 (PVLELFENLLERLLDALQKKLK) [compound 146]
He (%) TFE: 95
--
Substance: PVLDEFREKLNERLEALKQKLK [peptide 109, reference compound]
He (%) TFE: 58
--
Substance: 42 (PVLDEFREKLNE[Aib]WEALKQKLK) [compound 42]
He (%) TFE: 76
--
Substance: PVLDLFRELWNELLEALKQKLK [peptide 15]
He (%) TFE: 68
--
Substance: 223 (PVLDAFRELLEALAQLKK) [compound 223]
He (%) TFE: 51
--
Substance: 148 (PVLELFENLLERLGDALQKKLK) [compound 148]
He (%) TFE: 80
--
Substance: 154 (PVLELFENLLERGLDALQKKLK) [compound 154]
He (%) TFE: 80

====

- Experimental protocol: Circular dichroism: degree of helicity (free, SUVs, micelles, TFE)
- Test parameters: percent helicity of free, unbound peptide
Where no end group is shown, it is not given here. [ ]: non-standard residue; d: D form. Aib = CC(C)(N)C(=O)O
The label true (1) is reserved for He (%) free strictly under 60%; false (0) covers values equal to or above it.

Substance: 60 (PVLDLFRELLNELLEALKQ) [compound 60]
Assigned category: true (1)
--
Substance: 42 (PVLDEFREKLNE[Aib]WEALKQKLK) [compound 42]
Assigned category: true (1)
--
Substance: 51 (PVLDLFWELLNE[Aib]LEALKQKLK) [compound 51]
Assigned category: false (0)
--
Substance: PVLDLFKELLNELLEALKQKLK [peptide 7]
Assigned category: false (0)
--
Substance: 67 (VLDLFRELLNELLEALKQKLK) [compound 67]
Assigned category: false (0)
--
Substance: 149 (PVLELFENLWERLLDALQKKLK) [compound 149]
Assigned category: true (1)
--
Substance: 62 (PVLDEWREKLNE[Aib]LEALKQKLK) [compound 62]
Assigned category: true (1)
--
Substance: PVLDLFRELWNELLEALKQKLK [peptide 15]
Assigned category: true (1)
--
Substance: PVLDLFRELLNELWEALKQKLK [peptide 28]
Assigned category: false (0)
--
Substance: 148 (PVLELFENLLERLGDALQKKLK) [compound 148]
Assigned category: true (1)
--
Substance: DWLKAFYDKVAEKLKEAF [peptide 244, reference compound]
Assigned category: true (1)
